# Lookup of reported κ receptor reaction rate at the maximum concentration (reference value, marked *) keyed by entry
- TARGET: human opioid κ receptor (Homo sapiens, UniProt P41145)
- Construct: host or cells: CHO cells
- Sequence (P41145 whole entry): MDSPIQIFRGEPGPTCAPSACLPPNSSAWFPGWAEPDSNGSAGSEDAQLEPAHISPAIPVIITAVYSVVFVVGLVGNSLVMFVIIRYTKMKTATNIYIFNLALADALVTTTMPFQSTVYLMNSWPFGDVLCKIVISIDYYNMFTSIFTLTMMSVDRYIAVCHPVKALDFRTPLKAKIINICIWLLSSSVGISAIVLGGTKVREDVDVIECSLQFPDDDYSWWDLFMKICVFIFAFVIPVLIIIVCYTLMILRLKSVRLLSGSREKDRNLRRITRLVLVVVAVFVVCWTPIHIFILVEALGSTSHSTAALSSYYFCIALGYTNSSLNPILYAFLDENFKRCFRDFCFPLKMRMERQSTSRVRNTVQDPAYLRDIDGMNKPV
- PROCEDURE_DETAILS: Opioid receptor function test (Lance Ultra cAMP Kit), κ receptor
- Assay type: cell-based
- REPORTED_CONDITIONS: maximum reaction not reached; maximum concentration 10 μM; U-69593 = 100%
Marks after values point to notes of the source that are not given here.

MOL_SMILES | TARGET | VALUE
O=C(c1cc(=O)cco1)N1C[C@H]2C[C@@]34CC[C@@H]1[C@@H]2[C@@]31CCN(CC2CC2)[C@@H]4Cc2ccc(O)cc21 | human opioid κ receptor (Homo sapiens, UniProt P41145) | 0.6* %

For "Cn1c(C(=O)N2C[C@H]3C[C@@]45CC[C@@H]2[C@@H]3[C@@]42CCN(CC3CC3)[C@@H]5Cc3ccc(O)cc32)cccc1=O" , write its κ receptor reaction rate at the maximum concentration (reference value, marked *). −0.7* %

Could you please provide reported κ receptor reaction rate at the maximum concentration (reference value, marked *) for "O=C(c1cc(=O)cc[nH]1)N1C[C@H]2C[C@@]34CC[C@@H]1[C@@H]2[C@@]31CCN(CC2CC2)[C@@H]4Cc2ccc(O)cc21" ? Thanks! −6.7* %

Note κ receptor reaction rate at the maximum concentration (reference value, marked *) for the compound shown: "Cn1cccc(C(=O)N2C[C@H]3C[C@@]45CC[C@@H]2[C@@H]3[C@@]42CCN(CC3CC3)[C@@H]5Cc3ccc(O)cc32)c1=O" 3.2* %

Please indicate κ receptor reaction rate at the maximum concentration (reference value, marked *) recorded for "O=C(c1cccc(=O)[nH]1)N1C[C@H]2C[C@@]34CC[C@@H]1[C@@H]2[C@@]31CCN(CC2CC2)[C@@H]4Cc2ccc(O)cc21" −0.9* %

Tell us which κ receptor reaction rate at the maximum concentration (reference value, marked *) value is on record for "O=C(c1cc[nH]c(=O)c1)N1C[C@H]2C[C@@]34CC[C@@H]1[C@@H]2[C@@]31CCN(CC2CC2)[C@@H]4Cc2ccc(O)cc21" −2.5* %

Reference for the values: patent US11633392B2
